# Tested on: ACHN
# protocol_notes: NCI tumour cell line growth inhibition, 48 h
Activity calls are given as the source filed them. Cut-off read from the data, not from the text of the source: active = GI50 up to about 1.1 µM and inactive = higher.
measured_parameter: GI50

Answered cases to consult:
{"compound": "COC(=O)c1oc([N+](=O)[O-])c(-c2ccccc2)c1-c1ccccc1", "endpoint_value": "> 100 µM (inactive)"}
{"compound": "CC1(C)CC(=O)c2c(nc3ccc4ccccc4c3c2-c2ccc(NC(=O)CCCCCCCCC(=O)Nc3ccc(-c4c5c(nc6ccc7ccccc7c46)CC(C)(C)CC5=O)cc3)cc2)C1", "endpoint_value": "> 100 µM (inactive)"}
{"compound": "COc1ccc(-c2cc(-c3cc(Cl)cc(Br)c3O)nc(O)n2)cc1", "endpoint_value": "14.2 µM (inactive)"}
{"compound": "C[C@]12CC(c3ccccc3O1)C(C(=O)NC13CC4CC(CC(C4)C1)C3)C(=O)N2 (stereo not given in full)", "endpoint_value": "34.1 µM (inactive)"}
{"compound": "c1ccc2c(c1)N=c1cc3c(cc1N2)=NC12CCCCC1CC1=C(CCCC1)N32 (stereo not given)", "endpoint_value": "2.81 µM (inactive)"}

// input: 3 compounds below; output: GI50 for each
1. O=C1NC2CCC(C2)C1c1ccccc1 (stereo not given)
2. CC1(C)N=C(/C=N/O)C(C)(C)N1O
3. CN(C)CCNc1ccc([N+](=O)[O-])c2sc3ccccc3c(=O)c12

> 100 µM (inactive)
> 100 µM (inactive)
2.51 µM (inactive)

Field: GI50. Fill in for each record below.
1. CC(C)Cn1cnnc1NS(=O)(=O)c1cc(C(=O)NN)c(Cl)cc1S
2. CC(C)c1ccccc1NC(=O)CCC(=O)NN

1. > 10 µM (inactive)
2. > 100 µM (inactive)

###

# Test system: SK-MEL-28
# protocol_notes: NCI tumour cell line growth inhibition, 48 h
Activity calls are given as the source filed them. No stated cut-off is given here; in the data, active = GI50 up to about 1.1 µM and inactive = higher.
measured_parameter: GI50

Example entries and their recorded answers appear below.
{"compound": "O=C(CSCC(=O)N/N=C/c1ccncc1)N/N=C/c1ccncc1", "GI50": "> 100 µM (inactive)"}
{"compound": "COC(=O)C1=NN2c3ccccc3C(=O)OCCC2C1 (configuration not stated)", "GI50": "> 100 µM (inactive)"}
{"compound": "Clc1ccc(Cl)c(SCCCN2CCNCC2)c1", "GI50": "10.4 µM (inactive)"}
{"compound": "CN(C)CCNc1ccc([N+](=O)[O-])c2sc3ccccc3c(=O)c12", "GI50": "7.08 µM (inactive)"}
{"compound": "CC1(C)CC(=O)c2c(nc3ccc4ccccc4c3c2-c2ccc(NC(=O)CCCCCCCCC(=O)Nc3ccc(-c4c5c(nc6ccc7ccccc7c46)CC(C)(C)CC5=O)cc3)cc2)C1", "GI50": "> 100 µM (inactive)"}
{"compound": "CCCCc1nccc2c(C)c3[nH]c4ccccc4c3cc12", "GI50": "4.26 µM (inactive)"}
{"compound": "COC(=O)c1ccccc1CC1Cc2cc3c(cc2C1)CCC3", "GI50": "29.3 µM (inactive)"}
{"compound": "COC(=O)c1ccc2cc(O)c(O)cc2c1", "GI50": "46.9 µM (inactive)"}
{"compound": "CN(C)c1cccc(NC2=NCCO2)c1", "GI50": "42.8 µM (inactive)"}
{"compound": "NC1CC(Cl)c2c(Cl)sc(Cl)c21 (configuration not stated)", "GI50": "> 100 µM (inactive)"}

Go through the list and state GI50 for each entry.
1. O=C1C2C3C=CC(C2C(=O)N1CO)C1C2C(=O)N(CO)C(=O)C2C31 (configuration not stated)
2. N=c1oc2ccc(Cl)cc2cc1C(=O)NC1CCCCC1
3. N=C(N)NC(CC(=O)O)c1ccccc1 (configuration not stated)
4. COc1ccc2[nH]c3c(c2c1)[C@H]1CCC(C(C)(C)C)C[C@H]1[C@H]1C(=O)N(c2ccccc2)C(=O)[C@@H]31 (some centres not stated)

> 84.1 µM (inactive)
98.6 µM (inactive)
> 100 µM (inactive)
44.3 µM (inactive)

###

# Test system: UACC-62
# protocol_notes: NCI tumour cell line growth inhibition, 48 h
Active and inactive are the calls of the source. Cut-off read from the data, not from the text of the source: active = GI50 up to about 1.1 µM and inactive = higher.
measured_parameter: GI50

// worked examples, GI50 included
{"molecule": "O=C1OC(c2ccccc2)=N/C1=C/NC(Cc1c[nH]c2ccccc12)C(=O)O (stereo unspecified)", "GI50": "> 100 µM (inactive)"}
{"molecule": "COc1ccc2c(c1)CN1C(=N2)CSC1c1cccc(Br)c1 (stereo unspecified)", "GI50": "17.8 µM (inactive)"}
{"molecule": "O=c1[nH]c(=O)n([C@H]2CCCO2)cc1F", "GI50": "569 µM (inactive)"}
{"molecule": "NC1=NCC(CN2CCCCC2)O1 (stereo unspecified)", "GI50": "> 100 µM (inactive)"}
{"molecule": "Cc1nn(C(=O)Cc2ccccc2)c2c1C(c1ccc([N+](=O)[O-])cc1)SC(=N)N2 (stereo unspecified)", "GI50": "> 100 µM (inactive)"}

In the following, a different molecule is considered.
Name the recorded GI50 for O=C1C(c2ccccc2)=[N+]([O-])c2ccc(Cl)cc21 . 17.5 µM (inactive)

###

# System: RPMI-8226
# protocol_notes: NCI tumour cell line growth inhibition, 48 h
Active and inactive are the calls of the source. Cut-off read from the data, not from the text of the source: active = GI50 up to about 1.1 µM and inactive = higher.
Hi! Could you answer with just one of these? 1 (active), -1 (inactive)

{"compound": "O=CC[C@H]1CCc2ccccc2C12CCC(=O)CC2", "label_value": -1}

Could you kindly confirm the outcome this assay logged for O=C(CCc1nnc2s/c(=C\c3ccccc3Cl)c(=O)n12)Nc1cc(Cl)ccc1Cl ? -1

What was the test verdict on CC(C)OP(=O)(OC(C)C)/C(=N/Nc1ccc([N+](=O)[O-])cc1)NN ? -1

# outcome recorded in this test, key = CC1CC(=O)N2CCCNC2=C1C#N (stereo not drawn) -1

Tell me the assay call for O=C1c2cc([N+](=O)[O-])cc3cc([N+](=O)[O-])cc(c23)C(=O)N1CCCNCCNCCCN1C(=O)c2cc([N+](=O)[O-])cc3cc([N+](=O)[O-])cc(c23)C1=O please. 1

What did the test return for COc1ccc(N2CN3OC(=O)N(c4ccc(OC)cc4)[C@@]3(c3ccccc3)C2)cc1 ? -1

###

Could you please report measured GI50 for the items listed next?
# Tested on: BT-549
# protocol_notes: NCI tumour cell line growth inhibition, 48 h
Active and inactive are the calls of the source. Cut-off read from the data, not from the text of the source: active = GI50 up to about 1.1 µM and inactive = higher.

Below are worked cases with known answers.
{"compound": "N=c1oc2cc(O)ccc2cc1C(=O)Nc1cccc2ccccc12", "measured_parameter": "GI50", "endpoint_value": "2.43 µM (inactive)"}
{"compound": "CCOC(=O)Nn1cnnc1C", "measured_parameter": "GI50", "endpoint_value": "> 100 µM (inactive)"}
{"compound": "COC(=O)Cc1c(-c2[nH]c3ccccc3c2CC(=O)OC)[nH]c2ccccc12", "measured_parameter": "GI50", "endpoint_value": "> 57.1 µM (inactive)"}
{"compound": "Cn1cnc([N+](=O)[O-])c1Sc1nc(N)nc2c1ncn2[C@H]1C[C@H](O)[C@@H](CO)O1", "measured_parameter": "GI50", "endpoint_value": "5.62 µM (inactive)"}

Consider the following items and state reported GI50 for each.
1. COC(=O)C(=O)C(C(=O)C(=O)Nc1ccc(Cl)c(Cl)c1)c1nc2ccc(C(=O)c3ccccc3)cc2nc1O (stereo unspecified)
2. COc1ccc2c(c1)CN1C(=N2)CSC1c1cccc(Br)c1 (stereo unspecified)
3. O=C(O)CC1(CC(=O)O)Nc2ccccc2SC1=O

["> 100 µM (inactive)", "26.2 µM (inactive)", "> 100 µM (inactive)"]

###

# System: CAKI-1
# protocol_notes: NCI tumour cell line growth inhibition, 48 h
Calls of active or inactive are those of the source. No stated cut-off is given here; in the data, active = GI50 up to about 1.1 µM and inactive = higher.
Returns: one label drawn from t (active), f (inactive)

Solved entries (count: 5):
{"compound": "O=S1(=O)C(=C(c2ccccc2)c2ccccc2)S(=O)(=O)c2ccccc21", "label_value": "f"}
{"compound": "O=C1NC(Nc2ccccc2Cl)=N/C1=C\\c1c(Cl)cccc1Cl", "label_value": "f"}
{"compound": "Cc1ccc(S(=O)(=O)N2C[C@@H]3CC[C@]4(CO[Si](C)(C)C(C)(C)C)N[C@@H](c5ccccc5)[C@H]2[C@H]34)cc1", "label_value": "f"}
{"compound": "CCOC(=O)/C(C(=O)Nc1cccc(Cl)c1)=C(/N)N1CCCC1", "label_value": "f"}
{"compound": "CCOC(=O)N(C)C1(c2ccccc2)CCN(CCCC(=O)c2ccc(F)cc2)CC1", "label_value": "f"}

Kindly provide the recorded test outcome for the following compound: CC(=O)Nc1c(S(=O)(=O)c2ccccc2)c(C)c(C)n1CCN(C)C f

Outcome? COc1ncc(/C=C2\OC(=O)c3ccccc32)c(OC)n1 t

Hi team, can someone confirm the assay call for COC(=O)C1=C(C[S+]([O-])c2ccccc2[N+](=O)[O-])ON(C)C1c1ccccc1 (centres undefined) ? f

Dear all, I need the recorded test outcome for COc1cc(S(=O)(=O)Nc2ccc(-c3csc(/N=C\C=C\c4ccccc4)n3)cc2)ccc1Cl , thank you. f
